Reference source for all entries: ChEMBL document CHEMBL1961873

Form field: inhibition (one value per entry).
Biological target: Tyrosine-protein kinase CSK (Homo sapiens) (UniProt P41240);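 further: each value is an averaged inhibition reading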
Sequence (P41240 2-450 limits assumed): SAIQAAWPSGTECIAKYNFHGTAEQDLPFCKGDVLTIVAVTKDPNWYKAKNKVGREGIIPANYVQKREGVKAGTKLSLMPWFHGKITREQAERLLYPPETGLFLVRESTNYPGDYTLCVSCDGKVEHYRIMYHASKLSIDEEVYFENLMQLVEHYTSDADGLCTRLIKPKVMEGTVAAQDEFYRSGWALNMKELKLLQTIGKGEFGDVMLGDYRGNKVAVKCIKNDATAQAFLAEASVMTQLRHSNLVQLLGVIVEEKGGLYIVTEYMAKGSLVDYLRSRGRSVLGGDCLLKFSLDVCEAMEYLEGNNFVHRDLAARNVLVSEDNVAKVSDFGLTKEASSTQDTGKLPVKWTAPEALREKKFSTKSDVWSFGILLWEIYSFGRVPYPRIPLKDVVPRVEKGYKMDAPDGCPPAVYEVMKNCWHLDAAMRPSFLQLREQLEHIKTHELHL
Details: at 1 µM
Numeric answer only, unit % assumed.

Solved entries:
Item "CS(=O)(=O)CCNCc1coc(-c2ccc3ncnc(Nc4ccc(OCc5ccccc5)cc4)c3c2)c1" has what recorded inhibition?
5.24

Quick one: inhibition for "COc1ccc(-c2cc3c(N)ncnc3o2)cc1" ?
-0.98

State the recorded inhibition for this entry: "CCn1cc(-c2ccnc3[nH]ccc23)c(-c2cccc(NC(=O)Nc3ccc(OCc4ccccc4)cc3)c2)n1"
2.9

# lookup: inhibition of "COc1ccc2[nH]c3c4[nH]c5ccc(OC)cc5c4c4c(c3c2c1)C(=O)NC4=O"
9.75

Others:
Endpoint output: inhibition of "Fc1ccc(-c2nn3ccccc3c2-c2ccncc2)cc1" . Value?
2.22
